- MEASUREMENT TARGET: MERTK (UniProt Q12866)
- Sequence (Q12866 whole entry, looked up): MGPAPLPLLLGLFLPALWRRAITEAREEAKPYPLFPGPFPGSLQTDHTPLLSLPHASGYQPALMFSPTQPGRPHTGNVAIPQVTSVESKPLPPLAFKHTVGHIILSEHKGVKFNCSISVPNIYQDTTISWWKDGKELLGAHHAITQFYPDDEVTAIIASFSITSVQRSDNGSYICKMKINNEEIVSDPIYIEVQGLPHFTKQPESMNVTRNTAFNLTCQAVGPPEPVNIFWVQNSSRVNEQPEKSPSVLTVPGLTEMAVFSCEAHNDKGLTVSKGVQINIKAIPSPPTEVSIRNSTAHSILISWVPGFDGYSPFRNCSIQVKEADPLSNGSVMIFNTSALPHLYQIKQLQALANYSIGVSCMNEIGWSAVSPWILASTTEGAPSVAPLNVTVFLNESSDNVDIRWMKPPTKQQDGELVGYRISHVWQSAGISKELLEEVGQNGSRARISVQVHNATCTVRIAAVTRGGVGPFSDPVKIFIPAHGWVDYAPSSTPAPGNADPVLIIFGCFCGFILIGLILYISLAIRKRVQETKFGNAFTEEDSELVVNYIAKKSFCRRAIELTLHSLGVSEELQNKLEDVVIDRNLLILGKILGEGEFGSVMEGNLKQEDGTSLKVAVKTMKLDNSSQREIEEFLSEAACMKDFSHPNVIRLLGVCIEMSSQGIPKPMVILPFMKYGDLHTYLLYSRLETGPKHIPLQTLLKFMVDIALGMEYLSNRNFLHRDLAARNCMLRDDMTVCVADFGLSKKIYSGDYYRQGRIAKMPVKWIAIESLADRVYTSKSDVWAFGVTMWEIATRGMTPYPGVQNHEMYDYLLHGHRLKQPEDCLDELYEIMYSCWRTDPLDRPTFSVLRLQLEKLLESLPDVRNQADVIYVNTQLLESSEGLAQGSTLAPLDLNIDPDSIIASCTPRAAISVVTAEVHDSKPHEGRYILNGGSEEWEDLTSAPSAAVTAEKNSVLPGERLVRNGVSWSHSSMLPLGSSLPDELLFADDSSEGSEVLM
- ASSAY: phosphorylation enrichment, bacterial display (enrichment ratio); higher = better substrate or ligand; peptides without Tyr show the background;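 note: 11-residue human phosphosite peptides and single-mutation variants displayed on the E. coli surface, counted by deep sequencing, each peptide's frequency after selection divided by its frequency in the unselected input library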;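 note: frequency after pTyr selection over input frequency; kinase dosed for 20-30% of maximal phosphorylation in three min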
Property: phosphorylation enrichment; scope: individual sequences
OBSERVABLE: phosphorylation enrichment

INSERT INTO results (sequence_data, result) VALUES
  ('EFISECCGEII [EZH2_Y641_Y641C]', 0.503),
  ('GIFSGYDDAWD [POLR1C_Y36_N32I_YF]', 0.481),
  ('FIPFRYPKEFQ [IDS_Y234_H229Y_YF]', 0.409),
  ('VIVRMYDYHVL [RPF2_Y109_G106V]', 2.39),
  ('AVSEGYKDFRA [CDA_Y79]', 0.449),
  ('KNKKDYFDMFE [SLC26A3_Y526_YF]', 0.568),
  ('LVSCAYQMARG [FGFR1_Y605_V607M]', 0.489),
  ('RHFSSYSQMEN [PKP1_Y120_R116H]', 0.562),
  ('HITQVYGFFDE [PPP2CA_Y127_Q122H_YF]', 2.8),
  ('FEPWVYSLSYE [PRKDC_Y647_F649L]', 1.6),
  ('SGDITYGQFAQ [PLCG1_Y210]', 0.362),
  ('IINENYDFLKV [NUP98_Y1664_G1669V_YF]', 0.838),
  ('HFPFQYHRQLF [F12_Y53_YF]', 0.507),
  ('TVDASYYGGRG [ANTXR2_Y380]', 0.495),
  ('QYRFIYMAVQH [PTPN11_Y515]', 0.729),
  ('THLARYSDELR [APOA1_Y190_P189R]', 0.494),
  ('QITQVYGFFHE [PPP2CA_Y127_D131H_YF]', 5.31),
  ('EFNINYNNELP [THG1L_Y228]', 0.341),
  ('VPLATYMQIYK [RPL21_Y30_R32Q]', 0.541);
